This section presents compounds with their documented corrected activity, negative = more killing values.
- TEST: small molecules boosting NK-mediated OVCAR3 lysis – imaging, primary NK cells, calcein-AM imaging, primary screen (AID 1508625);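 note: compound given to NK cells 16 h before adding targets at 1.5 to 1 ratio; reference of the scale not given here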
- SETTINGS: OVCAR3 lysis by primary NK cells, at 5 µM

Some compounds with known corrected activity, negative = more killing results, for comparison:
- Cc1ccc(NC(=O)CSc2ccc(Nc3ccc(C)cc3)nn2)cc1: -2.33%
- Cc1cccc(C)c1OCCNC(=O)c1cc2ccccc2o1: -1.04%
- Oc1cccc(CN2CCN3CCCC3C2C2CCCCC2)c1 (centres undefined): -0.454%
- CCCc1c(C)c2cc3c(C)coc3cc2oc1=O: -6.81%

Shifting focus to the compound that follows.
query: Any idea what its corrected activity, negative = more killing is? The compound is `COc1ccc(C(=O)Nc2ccc(-c3nc4cc(C)cc(C)c4o3)cc2)cc1OC`
result: 2.2%
